# TARGET OR SYSTEM: CRMP2 (collapsin response mediator protein 2) (Rattus norvegicus)
# Construct: purified recombinant wild-type CRMP2 (GST construct), NT647-labeled
# PROTOCOL NOTES: microscale thermophoresis (MST), Hill fit
EXPERIMENTAL ENDPOINT: Kd (nM)
Numbers only, in nM.

Task: Would you kindly share the measured Kd for COC[C@H](NC(C)=O)C(=O)NCc1ccccc1 [(S)-LCM, (S)-lacosamide] ?
Output: 1500
